Listed below: AUC(0-t) values for each entry.
# Assay Summary: AUClast in Sprague-Dawley rat at 2 mg/kg, po and 1 mg/kg, iv
# Type: ADME, organism-based
# Condition Description: in vivo
Express the result in µg·h/mL but write the number alone.

Worked examples, 2 compounds total:
O=C(Nc1cccc(N2CCC(F)(F)CC2)n1)c1ccc(NS(=O)(=O)CCO)cc1C1=CCC2(CC1)CC2 = 1.34
O=C(Nc1ccc(F)c(N2CCC(F)(F)CC2)n1)c1ccc(NS(=O)(=O)CCO)cc1C1=CCC2(CC1)CC2 = 3.4

Item `O=C(Nc1cncc(N2CCC(F)(F)CC2)n1)c1ccc(NS(=O)(=O)CCO)cc1C1=CCC2(CC1)CC2` has what recorded AUC(0-t)? 0.322

State the recorded AUC(0-t) for this entry: `Cc1cc(NC(=O)c2ccc(NS(=O)(=O)CCO)cc2C2=CCC3(CC2)CC3)nc(N2CCC(F)(F)CC2)n1` 1.61

GET /values?readout=AUC(0-t)&item= `Cc1cc(NC(=O)c2ccc(NS(=O)(=O)CCO)cc2C2=CCC3(CC2)CC3)nc(N2CCC(F)(F)CC2)c1` 5.84

The reported numbers originate from ChEMBL document CHEMBL6071182.
